assay: AUC (0 to infinity) in SPF ICR mouse at 25 mg/kg, po administered as single dose measured for 0.25 to 24 hrs; format: ADME, organism-based; design: dose 25 mg/kg, time infinity, route oral; conditions: in vivo
experimental endpoint: AUC(0-inf) (ng·h/mL)
Please give a number only; it is taken to be in ng·h/mL.

Query: Quick one: AUC(0-inf) for CCOC(=O)c1c(-c2ccc(OC)cc2)oc2ccc(OCCCCCCN3C(=O)/C(=N/NC(N)=S)c4cc(F)ccc43)cc12 ?
Reply: 3800

---

assay: Tmax in SPF ICR mouse at 25 mg/kg, po administered as single dose measured for 0.25 to 24 hrs; assay type: ADME, organism-based; settings: in vivo
experimental endpoint: Tmax
Report as: number unit

Query: What value of measured Tmax is listed for CCOC(=O)c1c(-c2ccc(OC)cc2)oc2ccc(OCCCCCCN3C(=O)/C(=N/NC(N)=S)c4cc(F)ccc43)cc12 ?
Reply: 1.81 h
